# Organism: Rattus norvegicus
# Method Notes: Open TG-GATES - Regimen: Single
# Type: toxicity, organism-based, Sprague-Dawley
# Parameters: regimen Single, gender Male, age 6 weeks
# Test Settings: in vivo, po, 0 mg/kg, 3 h, tissue Blood, route gavage, dose level Control
Quantity: MCH (pg)
// note: answer is a bare numeric in pg

* Nc1c2c(nc3ccccc13)CCCC2 | 21.2
* CN(C)CCC(c1ccc(Cl)cc1)c1ccccn1 (configuration not stated) | 20.8
* O=C(OC[C@H]1O[C@@H](OC(=O)c2cc(O)c(O)c(OC(=O)c3cc(O)c(O)c(O)c3)c2)[C@H](OC(=O)c2cc(O)c(O)c(OC(=O)c3cc(O)c(O)c(O)c3)c2)[C@@H](OC(=O)c2cc(O)c(O)c(OC(=O)c3cc(O)c(O)c(O)c3)c2)[C@@H]1OC(=O)c1cc(O)c(O)c(OC(=O)c2cc(O)c(O)c(O)c2)c1)c1cc(O)c(O)c(OC(=O)c2cc(O)c(O)c(O)c2)c1 | 22.6

Q. Find the recorded MCH belonging to NC1=NC(=O)C(c2ccccc2)O1 (configuration not stated) and report it.
A. 21.6

Q. Find the recorded MCH belonging to Cc1nnc2n1-c1ccc(Cl)cc1C(c1ccccc1Cl)=NC2 and report it.
A. 21.2

Q. Find the recorded MCH belonging to CC(C)NNC(=O)c1ccncc1 and report it.
A. 21.3

Q. Find the recorded MCH belonging to CCOc1ccc(NC(C)=O)cc1 and report it.
A. 20.7

The values you see were collected from ChEMBL document CHEMBL3885861.
